Listing: pIC50 of selected compounds
- STUDY SYSTEM: PDGFβR (Mus musculus)
- Construct: A preparation of purified PDGFR from Swiss 3T3 cell membranes was used; endogenous in cells
- Sequence (P05622 32-1098): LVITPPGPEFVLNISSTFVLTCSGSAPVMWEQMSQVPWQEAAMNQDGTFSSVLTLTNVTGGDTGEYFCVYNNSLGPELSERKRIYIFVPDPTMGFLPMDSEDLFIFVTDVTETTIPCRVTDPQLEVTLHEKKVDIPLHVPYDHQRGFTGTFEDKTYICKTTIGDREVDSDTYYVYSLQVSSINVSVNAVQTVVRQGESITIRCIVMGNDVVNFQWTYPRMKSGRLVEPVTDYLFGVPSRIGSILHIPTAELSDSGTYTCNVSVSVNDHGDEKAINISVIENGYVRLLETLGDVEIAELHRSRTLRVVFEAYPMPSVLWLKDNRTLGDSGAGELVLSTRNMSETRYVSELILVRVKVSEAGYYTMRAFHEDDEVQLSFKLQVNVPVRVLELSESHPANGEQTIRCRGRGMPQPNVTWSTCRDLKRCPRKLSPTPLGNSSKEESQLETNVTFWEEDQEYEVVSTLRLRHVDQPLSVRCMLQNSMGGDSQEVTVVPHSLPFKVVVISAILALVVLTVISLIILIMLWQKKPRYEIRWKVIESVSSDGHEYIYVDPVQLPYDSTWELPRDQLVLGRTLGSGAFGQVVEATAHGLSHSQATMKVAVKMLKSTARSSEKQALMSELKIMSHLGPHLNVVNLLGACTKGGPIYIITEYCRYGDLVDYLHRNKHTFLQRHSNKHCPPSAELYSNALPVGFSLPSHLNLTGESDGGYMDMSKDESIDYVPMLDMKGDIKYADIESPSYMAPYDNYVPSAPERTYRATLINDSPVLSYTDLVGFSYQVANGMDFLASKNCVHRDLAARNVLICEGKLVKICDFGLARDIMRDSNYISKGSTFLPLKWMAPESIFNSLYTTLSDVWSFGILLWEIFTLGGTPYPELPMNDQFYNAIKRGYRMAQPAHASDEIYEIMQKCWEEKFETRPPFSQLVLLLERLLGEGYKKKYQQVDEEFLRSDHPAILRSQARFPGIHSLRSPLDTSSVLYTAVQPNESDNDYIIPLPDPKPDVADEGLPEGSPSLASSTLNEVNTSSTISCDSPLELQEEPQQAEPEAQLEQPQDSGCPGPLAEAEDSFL
- ASSAY NAME: PDGFR autophosphorylation, purified receptor from Swiss 3T3 cell membranes (cell free)
- CONDITION SET: isolated PDGFR from Swiss 3T3 cell membranes; read-out: IC50 (50% inhibition of phosphorylation)
pIC50: −log10 of the molar value.
PARAMETER: pIC50

1. Cc1nc2cc3nc(-c4ccccc4)cnc3cc2n1C [AG2033]: 7.15
2. Cc1nc2cc3nc(-c4cccs4)cnc3cc2n1C [AG2043]: 7.05

* * *

- Test system: PAEC/KDR cells
- ASSAY NAME: Proliferation of KDR transfected PAEC cells ([3H]thymidine incorporation)
- Type: cell-based, porcine
- CONDITION SET: Sus scrofa, read-out: IC50 (50% inhibition of proliferation) KDR
pIC50: −log10 of the molar value.
PARAMETER: pIC50

1. Cc1nc2cc3nc(-c4ccccc4)cnc3cc2n1C: < 5.00

* * *

- System: PAEC/PDGFR cells
- ASSAY NAME: Migration of PDGFβR transfected PAEC cells toward PDGF-BB (Boyden chamber)
- Format: cell-based, porcine
- CONDITION SET: Sus scrofa, PDGF-BB 10 ng/ml, read-out: IC50 (50% inhibition of migration) PDGFβR
- Description: Assessment of cell migration (Chemotaxis assay): The chemotactic response of HCASMC, PAEC/KDR and PAEC/PDGFR cells was assessed using the modified Boyden chamber (Neuro Probe, Inc.) and collagen-coated polycarbonate filters (Nucleopore) with pore diameters of 8 μm as previously described. […] The assay was performed in triplicate, and five medium-power fields were counted per well using a light microscope (Jenalab). […]
pIC50: −log10 of the molar value.
PARAMETER: pIC50

1. Cc1nc2cc3nc(-c4ccccc4)cnc3cc2n1C: 5.30

* * *

- Tested on: human coronary artery SMC (HCASMC)
- ASSAY NAME: HCASMC migration (Boyden chamber)
- Format: cell-based
- CONDITION SET: absence of PDGF-BB, read-out: IC50 of basal migratory activity of HCASMC
PARAMETER: IC50

1) Cc1nc2cc3nc(-c4cccs4)cnc3cc2n1C [AG2043]: < 10 µM
2) Cc1nc2cc3nc(-c4ccccc4)cnc3cc2n1C [AG2033]: < 10 µM

* * *

- STUDY SYSTEM: KDR (Homo sapiens)
- Sequence (P35968 20-1356): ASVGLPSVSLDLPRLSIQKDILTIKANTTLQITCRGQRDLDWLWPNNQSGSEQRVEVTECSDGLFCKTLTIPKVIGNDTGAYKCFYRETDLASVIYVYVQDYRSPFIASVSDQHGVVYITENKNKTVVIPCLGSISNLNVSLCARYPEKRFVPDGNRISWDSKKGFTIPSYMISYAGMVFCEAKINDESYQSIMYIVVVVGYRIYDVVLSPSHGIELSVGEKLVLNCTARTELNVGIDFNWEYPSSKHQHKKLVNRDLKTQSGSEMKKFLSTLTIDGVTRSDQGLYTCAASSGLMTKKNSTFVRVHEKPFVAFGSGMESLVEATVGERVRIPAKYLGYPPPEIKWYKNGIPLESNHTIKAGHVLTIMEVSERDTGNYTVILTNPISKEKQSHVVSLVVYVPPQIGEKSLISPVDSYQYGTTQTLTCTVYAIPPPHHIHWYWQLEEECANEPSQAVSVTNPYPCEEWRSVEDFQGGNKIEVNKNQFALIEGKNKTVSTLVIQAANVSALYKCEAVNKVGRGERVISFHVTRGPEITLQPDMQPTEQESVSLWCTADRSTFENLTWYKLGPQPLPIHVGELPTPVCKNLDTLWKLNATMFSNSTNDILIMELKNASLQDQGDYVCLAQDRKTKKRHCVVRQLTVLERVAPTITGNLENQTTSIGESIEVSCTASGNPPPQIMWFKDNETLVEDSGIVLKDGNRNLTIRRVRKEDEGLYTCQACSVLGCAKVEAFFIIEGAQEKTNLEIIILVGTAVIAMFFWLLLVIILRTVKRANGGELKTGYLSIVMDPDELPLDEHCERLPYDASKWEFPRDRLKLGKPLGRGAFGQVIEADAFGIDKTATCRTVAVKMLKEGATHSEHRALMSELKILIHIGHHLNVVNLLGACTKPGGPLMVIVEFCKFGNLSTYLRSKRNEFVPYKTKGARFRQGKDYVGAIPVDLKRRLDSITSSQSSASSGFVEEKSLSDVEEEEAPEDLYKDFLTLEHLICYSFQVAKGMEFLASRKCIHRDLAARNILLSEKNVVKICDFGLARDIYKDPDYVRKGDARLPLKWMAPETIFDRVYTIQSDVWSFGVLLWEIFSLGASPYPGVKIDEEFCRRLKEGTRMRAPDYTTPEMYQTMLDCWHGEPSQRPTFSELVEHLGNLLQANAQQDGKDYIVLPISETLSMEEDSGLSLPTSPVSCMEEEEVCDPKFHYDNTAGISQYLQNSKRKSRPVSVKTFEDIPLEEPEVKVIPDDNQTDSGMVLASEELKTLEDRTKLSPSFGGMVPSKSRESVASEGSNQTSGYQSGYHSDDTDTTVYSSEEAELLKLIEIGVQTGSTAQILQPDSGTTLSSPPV
- ASSAY NAME: KDR receptor phosphorylation in intact PAEC cells
- CONDITION SET: intact PAEC cells expressing KDR, VEGF stimulated; read-out: IC50 (50% inhibition of phosphorylation) KDR
pIC50: −log10 of the molar value.
PARAMETER: pIC50

1. Cc1nc2cc3nc(-c4cccs4)cnc3cc2n1C [AG2043]: 5.52
